# SYSTEM: recombinant human kinase domain of TYK2 (Homo sapiens (Human), UniProt P29597)
# Sequence (P29597 897-1176): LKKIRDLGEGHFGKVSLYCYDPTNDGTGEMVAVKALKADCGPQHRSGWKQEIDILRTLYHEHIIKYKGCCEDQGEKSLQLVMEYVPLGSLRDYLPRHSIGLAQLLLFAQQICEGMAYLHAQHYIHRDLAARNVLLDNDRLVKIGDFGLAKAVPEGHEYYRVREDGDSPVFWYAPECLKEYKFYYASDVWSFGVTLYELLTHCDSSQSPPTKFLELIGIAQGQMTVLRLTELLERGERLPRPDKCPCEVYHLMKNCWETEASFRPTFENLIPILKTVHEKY
# EXPERIMENTAL DETAILS: JAK Caliper enzyme assay at 1 mM ATP (TYK2);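 note: microfluidic mobility-shift readout of synthetic peptide phosphorylation by TYK2, tuned to 20–30% conversion at room temperature, reaction stopped with EDTA, DMSO-only wells as uninhibited baseline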
# Type: biochemical
# REPORTED CONDITIONS: 1 mM ATP; read-out: IC50 (nM) TYK2
Quick list: log10 of IC50 per entry.
REPORTED ENDPOINT: log10 of IC50 (log10 of the value in nM)

# COMPOUND, SYSTEM, log10 of IC50
measured = [
    ("CNC(=O)c1cc(Nc2nccc(N3C[C@H]4CC[C@@H](C3)N4C(=O)[C@@H]3CC3(F)F)n2)cc(C)n1", "recombinant human kinase domain of TYK2 (Homo sapiens (Human), UniProt P29597)", 1.85),
    ("Cn1cc(Nc2nccc(N3C[C@H]4CC[C@@H](C3)N4C(=O)[C@@H]3C[C@@H]3C#N)n2)cn1", "recombinant human kinase domain of TYK2 (Homo sapiens (Human), UniProt P29597)", 2.40),
    ("CCNC(=O)c1ncc(Nc2nccc(N3C[C@H]4CC[C@@H](C3)N4C(=O)C3CC3)n2)cc1C", "recombinant human kinase domain of TYK2 (Homo sapiens (Human), UniProt P29597)", 1.90),
    ("CNC(=O)c1ncc(Nc2nccc(N3C[C@H]4CC[C@@H](C3)N4C(=O)[C@H]3CC3(F)F)n2)cc1F", "recombinant human kinase domain of TYK2 (Homo sapiens (Human), UniProt P29597)", 2.87),
    ("NS(=O)(=O)c1ccc(Nc2ncc(F)c(N3C[C@H]4CC[C@@H](C3)N4C(=O)C3CC3)n2)cn1", "recombinant human kinase domain of TYK2 (Homo sapiens (Human), UniProt P29597)", 2.25),
    ("CCCNC(=O)c1cc(Nc2ncc(F)c(N3C[C@H]4CC[C@@H](C3)N4C(=O)C3CC3)n2)n[nH]1", "recombinant human kinase domain of TYK2 (Homo sapiens (Human), UniProt P29597)", 2.64),
    ("CNC(=O)c1ncc(Nc2nccc(N3C[C@H]4CC[C@@H](C3)N4C(=O)NCC(F)(F)F)n2)cc1C", "recombinant human kinase domain of TYK2 (Homo sapiens (Human), UniProt P29597)", 0.95),
    ("O=C(C1CC1)N1[C@@H]2CC[C@H]1CN(c1nc(Nc3ccnnc3)ncc1F)C2", "recombinant human kinase domain of TYK2 (Homo sapiens (Human), UniProt P29597)", 3.04),
    ("Cn1cc(Nc2nccc(N3C[C@H]4CC[C@@H](C3)N4C(=O)NCCC#N)n2)cn1", "recombinant human kinase domain of TYK2 (Homo sapiens (Human), UniProt P29597)", 1.81),
    ("CNC(=O)c1ncc(Nc2nccc(N3C[C@H]4CC[C@@H](C3)N4C(=O)[C@@H]3CC3(F)F)n2)cc1C (single isomer, unassigned)", "recombinant human kinase domain of TYK2 (Homo sapiens (Human), UniProt P29597)", 1.18),
    ("N#CCCN1[C@@H]2CC[C@H]1CN(c1ccnc(Nc3cn[nH]c3)n1)C2", "recombinant human kinase domain of TYK2 (Homo sapiens (Human), UniProt P29597)", 1.53),
    ("C[C@H](CO)c1ccc(Nc2ncc(F)c(N3C[C@H]4[C@@H](C)[C@@]4(NC(=O)C4CC4)C3)n2)cn1 (single isomer, unassigned)", "recombinant human kinase domain of TYK2 (Homo sapiens (Human), UniProt P29597)", 1.93),
    ("C[C@@H]1[C@@H]2CN(c3nc(Nc4cnn(C5COC5)c4)ncc3F)C[C@]12NC(=O)[C@@H]1CC1(F)F", "recombinant human kinase domain of TYK2 (Homo sapiens (Human), UniProt P29597)", 1.41),
    ("O=C([C@@H]1CC1(F)F)N1[C@@H]2CC[C@H]1CN(c1ccnc(Nc3cnc(CCO)c(F)c3)n1)C2", "recombinant human kinase domain of TYK2 (Homo sapiens (Human), UniProt P29597)", 1.72),
    ("CCNC(=O)N1[C@@H]2CC[C@H]1CN(c1ccnc(Nc3cnc(C(=O)NC)c(Cl)c3)n1)C2", "recombinant human kinase domain of TYK2 (Homo sapiens (Human), UniProt P29597)", 1.82),
    ("CCNC(=O)c1ccc(Nc2ncc(F)c(N3CC4CC(C3)N4C(=O)C(C)(F)F)n2)cc1C", "recombinant human kinase domain of TYK2 (Homo sapiens (Human), UniProt P29597)", 1.75),
    ("Cn1cc(Nc2nccc(N3C[C@H]4CC[C@@H](C3)N4C(=O)[C@H]3C[C@H]3C#N)n2)cn1", "recombinant human kinase domain of TYK2 (Homo sapiens (Human), UniProt P29597)", 2.63),
    ("CCNC(=O)c1ccc(Nc2nccc(N3CC4CC(C3)N4C(=O)C(F)(F)F)n2)cc1C", "recombinant human kinase domain of TYK2 (Homo sapiens (Human), UniProt P29597)", 1.81),
    ("Cn1cc(Nc2nccc(N3C[C@H]4CC[C@@H](C3)N4c3cc(C#N)ccn3)n2)cn1", "recombinant human kinase domain of TYK2 (Homo sapiens (Human), UniProt P29597)", 1.79),
    ("CNC(=O)c1ncc(Nc2nccc(N3C[C@H]4CC[C@@H](C3)N4[C@H]3C[C@@H](C#N)C3)n2)cc1C (single isomer, unassigned)", "recombinant human kinase domain of TYK2 (Homo sapiens (Human), UniProt P29597)", 1.26),
    ("Cn1cc(Nc2nccc(N3C[C@H]4CC[C@@H](C3)N4C3CC(C#N)C3)n2)cn1 (some centres unmarked)", "recombinant human kinase domain of TYK2 (Homo sapiens (Human), UniProt P29597)", 1.79),
    ("Cn1cc(Nc2nccc(N3C[C@H]4CC[C@@H](C3)N4Cc3nccs3)n2)cn1", "recombinant human kinase domain of TYK2 (Homo sapiens (Human), UniProt P29597)", 1.95),
    ("CNC(=O)c1ncc(Nc2nccc(N3C[C@H]4CC[C@@H](C3)N4C(=O)[C@@H]3C[C@H]3C#N)n2)cc1Cl", "recombinant human kinase domain of TYK2 (Homo sapiens (Human), UniProt P29597)", 1.51),
]
